target_or_test_system: T1, human NGF (his tag) (human, UniProt P01138 122-241, limits assumed)
T1 construct: Captured on Ni-NTA sensors in the ForteBio Octet assay; also called hNGF; antigen; not shown: his tag
T1 sequence (P01138 122-241 limits assumed): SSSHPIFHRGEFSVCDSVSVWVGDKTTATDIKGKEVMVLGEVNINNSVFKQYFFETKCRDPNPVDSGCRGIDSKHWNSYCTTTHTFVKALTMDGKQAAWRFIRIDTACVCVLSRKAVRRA
protocol: BLI (ForteBio Octet), method of example 4
Below, each of the binders is paired with its reported koff value.
Value expressed in s⁻¹; do not type the unit.

Solved cases below.
humanized antibody AB5D6 (antibody, V domains shown, Humanized from #2 by surface remodeling) VH: QVQLQQSGPEVAKPGASVKLSCKASGYTFTDYWMQWVKQRPGQGLEWIGTIYPGDGYTRYIQKFKGRATLTADKSTSTAYMELNSLASEDSAVYYCARRAAYYTMDYWGQGTSVTVSS VL: DIVMTQSHKFMSTSVGDRVTITCKASQDVNTAVAWYQQKPGQSPKLLIYWASTRHTGVPDRFSGSGSGTDYILTISSVQAEDLALYYCQQHYSSPWTFGGGTKLEIT    2.22e-05
human mouse chimeric antibody AB5C1 (antibody, V domains shown) VH: QVQLKESGPGLVAPSQSLSITCTVSGFSLTGYGVNWVRQPPGKGLEWLGMIWADGDTDYNSALKSRLSISKDNSKSQVFLKVNNLQTDDTARYYCARDSYYYGYNFFDVWGAGTTVTVSS VL: DIQMTQTTSSLSASLGDRVTISCRASQDISNYLNWYQQKPEGTLKLLIYYTSRLHSGVPSRFSGSGSGTDYSLTISSLEQEDIATYFCQQGNTLPRTFGGGTKLEIK    5.4e-05
humanized antibody AB5C6 (antibody, V domains shown, Humanized from #56 by surface remodeling) VH: QVQLKESGPGLVAPSETLSITCTVSGFSLTGYGVNWVRQPPGKGLEWLGMIWADGDTDYNSALKSRLTISKDNSKSQVFLKVNNLQTDDTARYYCARDSYYYGYNFFDVWGAGTTVTVSS VL: DIQMTQSPSSLSASVGDRVTISCRASQDISNYLNWYQQKPEGTLKLLIYYTSRLHSGVPSRFSGSGSGTDYSLTISSLQQEDIATYFCQQGNTLPRTFGGGTKLEIK    1.61e-05
humanized antibody AB5D3 (antibody, V domains shown, Humanized from #2 by CDR transplantation) VH: QVQLVQSGAEVKKPGASVKVSCKASGYTFTDYWMHWVRQAPGQGLEWMGIIYPGDGYTSYAQKFQGRVTMTRDTSTSTVYMELSSLRSEDTAVYYCARRAAYYTMDYWGQGTLVTVSS VL: DIQMTQSPSSLSASVGDRVTITCRASQDVNTALAWYQQKPGKAPKLLLYWASRLESGVPSRFSGSGSGTDYTLTISSLQPEDFATYYCQQHYSSPWTFGGGTKVEIT    1.92e-05
humanized antibody AB5C4 (antibody, V domains shown, Humanized from #56 by CDR transplantation) VH: QVQLQESGPGLVKPSETLSLTCTVSGFSLTGYGWGWVRQPPGKGLEWIGSIWADGDTYYNPSLKSRVTISVDTSKNQFSLKLSSVTAADTAVYYCARDSYYYGYNFFDVWGQGTMVTVSS VL: DIQMTQSPSSLSASVGDRVTITCQASQDISNYLNWYQQKPGKAPKLLIYYTSNLESGVPSRFSGSGSGTDFTFTISSLQPEDIATYYCQQGNTLPRTFGGGTKVEIK    2.23e-05

We now examine a further binder.
Give its koff value. Item: humanized antibody AB5D4 (antibody, V domains shown, Humanized from #2 by CDR transplantation) VH: QVQLVQSGAEVKKPGASVKVSCKASGYTFTDYWMHWVKQAPGQGLEWMGIIYPGDGYTSYAQKFQGRVTMTRDTSTSTVYMELSSLRSEDTAVYYCARRAAYYTMDYWGQGTLVTVSS VL: DIQMTQSPSSLSASVGDRVTITCRASQDVNTALAWYQQKPGKAPKLLLYWASRLETGVPSRFSGSGSGTDYTLTISSLQPEDFATYYCQQHYSSPWTFGGGTKVEIT
3.25e-05
